Data origin, for the record: PubChem BioAssay

# testDetails: inhibitors of TNFa-induced NFkB p65 translocation, primary screen, imaging, HUVEC, MLSMR starter and 10KST1 sets (AID 438);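 further: compound added about 3h40 before a 20 min TNFalpha stimulation; signal is the nuclear over cytoplasmic p65 intensity ratio per well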
# measurementSetup: HUVEC TNFa-induced p65 nuclear translocation; at 2 µM, hits give high values, 0% TNFa-plus-vehicle, 100% no-TNFa wells
In this section, each of the compounds is paired with its reported inhibition.
Please reply with the bare figure in % and do not write the unit itself.

compound=O=C(c1ccc(=O)oc1)N1CCN(C(c2ccccc2)c2ccccc2)CC1 measurednumber=-3.2
compound=Cc1nn(CC(=O)N2CCOCC2)c(=O)c2ccccc12 measurednumber=-9.1
compound=O=C(Cn1cc2c(n1)CCCC2)NCCc1ccccc1 measurednumber=-3.7
compound=Cn1ncc(N=Cc2ccccc2O)c1C(=O)N1CCOCC1 measurednumber=6.6
compound=CCOc1ccc(C(=O)N2CCN(C(=O)c3ccco3)CC2)cc1OCC measurednumber=-2.7
compound=CCCCCn1c(CN2CCN(C(=O)c3ccco3)CC2)nc2c1c(=O)n(C)c(=O)n2C measurednumber=-14.6
compound=C=CCc1cccc(CNc2nc3ccccc3n2C(C)C)c1O measurednumber=4.4
compound=CCCCc1c(O)nc(N2CCN(Cc3ccccc3)CC2)[nH]c1=O measurednumber=-2.5

Query `CSc1nc2[nH]c3c(c2c2nncn12)CC(C)(C)OC3` yields inhibition of -4.9

Query CC(=O)OC1CSc2nc3ccccc3n2C1 (stereo not drawn) yields inhibition of -9.6

Query CC1(C)C2CCC1(C)C(OC(=O)CC(=O)O)C2 (stereo not drawn) yields inhibition of -2

Query CC(O)CNc1nc2c(c(=O)n(C)c(=O)n2C)n1CCc1ccccc1 (stereo not drawn) yields inhibition of -2.3

Query `CN(C)c1ccc(-c2nn3c(-c4ccc(Cl)cc4Cl)nnc3s2)cc1` yields inhibition of 2.6

Query COc1ccc(N2C(=O)CC(N(Cc3ccc(S(N)(=O)=O)cc3)C(C)=O)C2=O)cc1 (stereo not drawn) yields inhibition of 4.1

====

In this section, each of the compounds is paired with its reported NADPH fluorescence slope.
# assayedTarget: Voltage-gated potassium channel subunit beta-2 (Rattus norvegicus) (UniProt P62483)
# Sequence (P62483 whole entry, looked up): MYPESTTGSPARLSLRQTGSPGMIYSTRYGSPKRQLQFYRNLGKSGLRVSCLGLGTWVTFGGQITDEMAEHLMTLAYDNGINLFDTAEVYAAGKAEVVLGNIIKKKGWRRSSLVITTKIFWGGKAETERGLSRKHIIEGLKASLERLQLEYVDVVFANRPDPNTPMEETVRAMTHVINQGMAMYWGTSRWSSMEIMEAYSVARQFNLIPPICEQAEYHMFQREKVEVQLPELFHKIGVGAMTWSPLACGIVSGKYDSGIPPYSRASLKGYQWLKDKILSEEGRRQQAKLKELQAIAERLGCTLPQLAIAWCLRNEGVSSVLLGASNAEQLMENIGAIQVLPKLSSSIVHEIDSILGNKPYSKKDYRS
# testDetails: KvBeta positive modulators, primary screen, biochemical, NADPH fluorescence (AID 623);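 further: fluorescence intensity change per second fitted from 20 to 320 s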
# measurementSetup: Recombinant KvBeta, NADPH fluorescence decrease slope, 10 min; at 10 µM; hits give low values
Field format: numeric only.

The cases that follow already have their NADPH fluorescence slope on record.
compound=CNc1oc(-c2cccs2)nc1C#N measurednumber=-2.3e-05
compound="CCc1ccc(NC(=O)CS(=O)CC(=O)NCC2OCCc3ccccc32)cc1 (stereo unspecified)" measurednumber=-3.6e-05
compound=CC(=O)c1cccc(-n2nnnc2SCC(=O)N2CCCC2)c1 measurednumber=-4.2e-05
compound=N#CC1=C(N)C(C#N)(C#N)[C@H](c2ccsc2)[C@H]2COCC=C12 measurednumber=2.1e-05

Query `COc1cccc(NS(=O)(=O)c2ccc3[nH]cc(C(=O)NC4CC4)c(=O)c3c2)c1` yields NADPH fluorescence slope of -7e-05

Query `COCc1nnc(NC(=O)CCCOc2ccccc2)s1` yields NADPH fluorescence slope of 9.1e-06

====

# assayedTarget: Voltage-gated potassium channel subunit beta-2 (Rattus norvegicus) (UniProt P62483)
# testDetails: KvBeta positive modulators, primary screen, biochemical, NADPH fluorescence (AID 623);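 further: fluorescence intensity change per second fitted from 20 to 320 s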
# measurementSetup: Recombinant KvBeta, NADPH fluorescence decrease slope, 10 min; at 10 µM; hits give low values
In this section, each of the compounds is paired with its reported NADPH fluorescence slope.
Field format: numeric only.

The cases that follow already have their NADPH fluorescence slope on record.
compound=Cc1nn(-c2ccc(F)cc2)c2c1cc(C#N)c1nc3ccccc3n12 measurednumber=1.1e-05
compound=CCN(CC)CCNc1ncnc2c1[nH]c1ccc(OC)cc12 measurednumber=1.1e-06
compound="COc1ccccc1C1CC(c2ccc(Cl)cc2)Nc2nc(N)nn21 (configuration not stated)" measurednumber=-0.000104
compound=Cc1cccn2c(=O)c(/C=C(\C#N)S(=O)(=O)c3ccccc3)c(N3CCN(C)CC3)nc12 measurednumber=-6e-05
compound=COc1ccc(CNc2nc3nc(C)c(Cl)c(C)n3n2)cc1OC measurednumber=-6e-05
compound="Nc1nc2n(n1)C(c1cccs1)CC(c1ccc(Br)cc1)N2 (configuration not stated)" measurednumber=-9.3e-05
compound=CCN(CC)c1nc(-c2cccc(OC)c2O)nc2ccccc12 measurednumber=-9.9e-05
compound=CCc1nc2sc3ccccc3c(=O)c2c(=O)n1Cc1ccco1 measurednumber=-3.8e-05
compound=N#CC1=C(N)N(c2ccc(Oc3ccccc3)cc2)C(=O)C1 measurednumber=-5.5e-05
compound="CCOC(=O)C1CCCN(C(=O)c2cc3c(=O)n4cccc(C)c4nc3n2C)C1 (configuration not stated)" measurednumber=-1.3e-05

Query `COc1cccc(CNc2ncc(Br)cc2Br)c1O` yields NADPH fluorescence slope of -4.8e-05

Query Cc1ccccc1N1C(=O)C2ON(c3ccccc3)C(c3cccnc3)C2C1=O (configuration not stated) yields NADPH fluorescence slope of -4.4e-05
